Property label: melting point

Molecule | Property label | Test result
COc1ccc(C(=O)Cc2c(Cl)cncc2Cl)c2c1CC1(CCCC1)O2 [Compound 132] | melting point | 70 to 72 °C
COc1ccc(C(=O)Cc2c(Cl)cccc2Cl)c2cc(C(=O)N(C)c3cccc(F)c3)oc12 | melting point | 198 to 199 °C
CCOC(=O)C(C#N)=Cc1ccc(OC)c2c1CC(C)(C)O2 [Compound 89] | melting point | 112 to 117 °C
COc1ccc(C(=O)Nc2c(Cl)cncc2Cl)c2c1OCC2CC(=O)NCc1ccc(Cl)cc1 (racemic) [Compound 30] | melting point | 283 to 286 °C
COc1ccc(C(=Cc2ccncc2)c2ccccc2)c2c1OCC2C (racemic) [Compound 80] | melting point | 103 to 105.5 °C
CCOC(=O)CC1COc2c(OC)ccc(C(=O)Nc3ccccc3)c21 (racemic) [Compound 7] | melting point | 169 to 170 °C
CCOC(=O)c1ccc(-c2ccc(OC)c3c2OCCO3)cc1 | melting point | 141 to 141.5 °C
COc1ccc(C(=O)Nc2c(Cl)cncc2Cl)c2c1OCCCO2 | melting point | 149 to 150 °C
COc1ccc(C(=O)Cc2c(Cl)cncc2Cl)c2c1OCC2CC(=O)OCc1ccccc1 (stereo not drawn) | melting point | 120 to 122 °C

Sourced from patent US6716987B1
